System: Leishmania donovani
method-notes: Antiproliferative activity against Leishmania donovani DI700 promastigotes overproducing ADOMETDC enzyme
Format: functional, organism-based
A collection of compounds and their measured pEC50
Worth noting: pEC50 values are minus log10 of concentrations stated in mol/L.

Use these answered entries as a reference point.
>>> print(df.to_string())
                                   compound  numeric_result
0  N=C(N)c1ccc(OCCCCCOc2ccc(C(=N)N)cc2)cc1 [PENTAMIDINE]            5.77
1  CC(/C=N/NC(=N)N)=N\NC(=N)N [MITOGUAZONE]            2.82
2  N=C(N)c1ccc(/N=N/Nc2ccc(C(=N)N)cc2)cc1 [DIMINAZENE]            5.01
3                        CCCCN [BUTYLAMINE]            3.70

# evaluate next
Query: Name the recorded pEC50 for NCCC[C@](N)(C(=O)O)C(F)F [EFLORNITHINE, (S)-] .
Reply: 4.52
